These entries and their values trace back to patent US20040197268A1.

- assayedTarget: Aβ(1-40) (Homo sapiens)
- Construct: Soluble Aβ(1-40) peptide (Bachem, Torrance, Calif.); purchased Bachem, Torrance, Calif
- Sequence (P05067 672-711 limits assumed): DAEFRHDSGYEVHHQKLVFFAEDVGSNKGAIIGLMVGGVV
- assaySummary: BASST (Beta-Amyloid Self-Seeding, ThioflavinT), inhibitors of self-seeded amyloid fibril growth
- Assay type: biochemical
- conditionDescription: 30 μM soluble Aβ(1-40), pH 7.5, 37° C., 3 to 5 hours, thioflavin T fluorescence
valueKind: IC50 (nM)

Readout IC50 for CCCCN(CCCC)c1ccc(/C=C2\SC(=S)N(CC(=O)NS(=O)(=O)c3ccccc3)C2=O)cc1 , test system Aβ(1-40) (Homo sapiens), was 1100

Readout IC50 for CCCCCCN(C)c1ccc(/C=C2\SC(=S)N(CCNS(C)(=O)=O)C2=O)cc1 , test system Aβ(1-40) (Homo sapiens), was 1100

Readout IC50 for CCCC1CCN(c2ccc(/C=C3\SC(=S)N(CC(=O)NS(=O)(=O)c4ccccc4)C3=O)cc2)CC1 , test system Aβ(1-40) (Homo sapiens), was 1000

Readout IC50 for CCCCCCN(C)c1ccc(/C=C2\SC(=S)N(CCNS(=O)(=O)C(F)(F)F)C2=O)cc1 , test system Aβ(1-40) (Homo sapiens), was 1000

Readout IC50 for CCCCCCN(C)c1ccc(/C=C2\SC(=S)N(CCS(=O)(=O)NC)C2=O)cc1 , test system Aβ(1-40) (Homo sapiens), was 800

Readout IC50 for CCCCCCN(C)c1ccc(/C=C2\SC(=S)N(CC(=O)NS(C)(=O)=O)C2=O)cc1 , test system Aβ(1-40) (Homo sapiens), was 800

Readout IC50 for CCCCCCN(C)c1ccc(/C=C2\SC(=S)N(CCS(=O)(=O)O)C2=O)cc1 , test system Aβ(1-40) (Homo sapiens), was 1000

Readout IC50 for CCCCCN(CCCCC)c1ccc(/C=C2\SC(=S)N(CC(=O)NS(=O)(=O)C(F)(F)F)C2=O)cc1 , test system Aβ(1-40) (Homo sapiens), was 1000

Readout IC50 for O=C1/C(=C/c2ccc(N3CCC4CCCCC4C3)cc2)SC(=S)N1Cc1cc(=O)c(O)co1 (stereo not shown) , test system Aβ(1-40) (Homo sapiens), was 1000

Readout IC50 for CCCCCN(CCCCC)c1ccc(/C=C2\SC(=S)N(CC(=O)NS(=O)(=O)c3ccccc3)C2=O)cc1 , test system Aβ(1-40) (Homo sapiens), was 1000
